B1: EHEE_rd4_0726 (parent)
chain: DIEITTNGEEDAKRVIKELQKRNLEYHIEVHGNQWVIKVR

variants of: B1; experiment: folding stability dG (cDNA display proteolysis); higher = more stable; conditions: PBS, room temperature
Parameter: folding stability dG. Scope: all listed entries.
Write the answer as a number in kcal/mol, unit excluded.

Examples with their reported folding stability dG follow.
variant.spec	folding stability dG [kcal/mol]
V30H	1.94
K21I	2.19
V15F	1.97
R22I	1.54
K17R	2.7

Task: Consider the variant V39R and give its measured folding stability dG.
Result: -0.082

Task: Query (variant): G32Q ; field requested: folding stability dG
Result: 1.59

Task: Which measured folding stability dG value corresponds to K38T ?
Result: 2.77

This collection of values is drawn from the MegaScale stability set (Tsuboyama et al. 2023).
